System: caspase-3 and -7 activities in RS4-11 cells
Experiment: Caspase-3/7 activation (Caspase-Glo 3/7) in RS4-11 cells
Assay type: cell-based
Conditions: Homo sapiens, 3.5 h incubation, read-out: Cas-3/7 (EC50 code)
resultType: EC50

COc1ccccc1CN(C(=O)c1cc(-c2cc3c(cc2C(=O)N2Cc4ccccc4C[C@H]2CN2CCOCC2)OCO3)n2c1CCCC2)c1ccc(O)cc1 [Compound 31] = ≤ 100 nM
O=C(c1cc(-c2cc3c(cc2C(=O)N2Cc4ccccc4C[C@H]2CN2CCOCC2)OCO3)n2c1CCCC2)N(Cc1cccc(C(F)(F)F)c1)c1ccc(O)cc1 [Compound 16] = 100 to 250 nM
O=C(c1cc(-c2cc3c(cc2C(=O)N2Cc4ccccc4C[C@H]2CN2CCOCC2)OCO3)n2c1CCCC2)N(Cc1ccc(C(F)(F)F)cc1)c1ccc(O)cc1 [Compound 24] = > 250 nM

[ask] Could you share which EC50 value was measured for Cc1cccc(Cl)c1CN(C(=O)c1cc(-c2cc3c(cc2C(=O)N2Cc4ccccc4C[C@H]2CN2CCOCC2)OCO3)n2c1CCCC2)c1ccc(O)cc1 [Compound 34] ?
[reply] > 250 nM

[ask] Same read-out for O=C(c1cc(-c2cc3c(cc2C(=O)N2Cc4ccccc4C[C@H]2CN2CCOCC2)OCO3)n2c1CCCC2)N(Cc1ccncc1)c1ccc(O)cc1 [Compound 9] ?
[reply] 100 to 250 nM

[ask] Same read-out for O=C(c1cc(-c2cc3c(cc2C(=O)N2Cc4ccccc4C[C@H]2CN2CCOCC2)OCO3)n2c1CCCC2)N(Cc1ccccc1F)c1ccc(O)cc1 [Compound 11] ?
[reply] ≤ 100 nM

----------
Listed next: entries and their corresponding IC50.
Target: BCL-XL (Homo sapiens (Human))
Sequence (Q07817 whole entry): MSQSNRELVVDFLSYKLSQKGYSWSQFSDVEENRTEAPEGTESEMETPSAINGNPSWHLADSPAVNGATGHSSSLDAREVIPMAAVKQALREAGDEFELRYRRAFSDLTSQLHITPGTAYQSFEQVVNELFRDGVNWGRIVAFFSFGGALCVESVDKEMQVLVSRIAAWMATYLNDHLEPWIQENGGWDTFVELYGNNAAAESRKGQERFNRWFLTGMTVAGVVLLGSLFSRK

Some molecules with recorded IC50:
O=C(c1cc(-c2cc3c(cc2C(=O)N2Cc4ccccc4C[C@H]2CN2CCOCC2)OCO3)n2c1CCCC2)N(Cc1cccc([N+](=O)[O-])c1)c1ccc(O)cc1 = > 4 µM
CN(C)CCNC(=O)c1ccc(CN(C(=O)c2cc(-c3cc4c(cc3C(=O)N3Cc5ccccc5C[C@H]3CN3CCOCC3)OCO4)n3c2CCCC3)c2ccc(O)cc2)cc1 = ≤ 2 µM
O=C(c1cc(-c2cc3c(cc2C(=O)N2Cc4ccccc4C[C@H]2CN2CCOCC2)OCO3)n2c1CCCC2)N(Cc1c(Cl)ccc(F)c1F)c1ccc(O)cc1 = > 4 µM
CCOc1ccc(-c2nc(CN(C(=O)c3cc(-c4cc5c(cc4C(=O)N4Cc6ccccc6C[C@H]4CN4CCOCC4)OCO5)n4c3CCCC4)c3ccc(O)cc3)c(C)o2)cc1 = > 4 µM

// next item, IC50 requested
[ask] Could you share which IC50 value was measured for `Cc1cccc(Cl)c1CN(C(=O)c1cc(-c2cc3c(cc2C(=O)N2Cc4ccccc4C[C@H]2CN2CCOCC2)OCO3)n2c1CCCC2)c1ccc(O)cc1` ?
[reply] > 4 µM

----------
Assay: Cell viability assay (CellTiter-Glo), HEK293
Assay type: cell-based
Conditions: human, HEK293 cells, read-out: HEK293 (CC50 code)
Listed next: entries and their corresponding CC50 at 3 days.

Some compounds with recorded CC50 at 3 days:
O=C(c1cc(-c2cc3c(cc2C(=O)N2Cc4ccccc4C[C@H]2CN2CCOCC2)OCO3)n2c1CCCC2)N(Cc1ccccc1-c1ccccc1)c1ccc(O)cc1 [Compound 18] = > 25 µM
O=C(c1cc(-c2cc3c(cc2C(=O)N2Cc4ccccc4C[C@H]2CN2CCOCC2)OCO3)n2c1CCCC2)N(Cc1cccc(C(F)(F)F)c1)c1ccc(O)cc1 [Compound 16] = > 25 µM
CN1CCN(C(=O)c2cccc(CN(C(=O)c3cc(-c4cc5c(cc4C(=O)N4Cc6ccccc6C[C@H]4CN4CCOCC4)OCO5)n4c3CCCC4)c3ccc(O)cc3)c2)CC1 [Compound 10] = 10 to 25 µM
O=C(c1cc(-c2cc3c(cc2C(=O)N2Cc4ccccc4C[C@H]2CN2CCOCC2)OCO3)n2c1CCCC2)N(Cc1cccc(F)c1)c1ccc(O)cc1 [Compound 21] = > 25 µM
O=C(c1cc(-c2cc3c(cc2C(=O)N2Cc4ccccc4C[C@H]2CN2CCOCC2)OCO3)n2c1CCCC2)N(Cc1ccc(F)cc1)c1ccc(O)cc1 [Compound 17] = > 25 µM
Cc1ccc(CN(C(=O)c2cc(-c3cc4c(cc3C(=O)N3Cc5ccccc5C[C@H]3CN3CCOCC3)OCO4)n3c2CCCC3)c2ccc(O)cc2)cc1 [Compound 20] = ≤ 10 µM
COc1cccc(CN(C(=O)c2cc(-c3cc4c(cc3C(=O)N3Cc5ccccc5C[C@H]3CN3CCOCC3)OCO4)n3c2CCCC3)c2ccc(O)cc2)c1C [Compound 3] = > 25 µM
NC(=O)c1cccc(CN(C(=O)c2cc(-c3cc4c(cc3C(=O)N3Cc5ccccc5C[C@H]3CN3CCOCC3)OCO4)n3c2CCCC3)c2ccc(O)cc2)c1 [Compound 7] = ≤ 10 µM

[ask] Could you share which CC50 at 3 days value was measured for O=C(c1cc(-c2cc3c(cc2C(=O)N2Cc4ccccc4C[C@H]2CN2CCOCC2)OCO3)n2c1CCCC2)N(Cc1cccc([N+](=O)[O-])c1)c1ccc(O)cc1 [Compound 49] ?
[reply] > 25 µM

[ask] Same read-out for O=C(O)c1cccc(CN(C(=O)c2cc(-c3cc4c(cc3C(=O)N3Cc5ccccc5C[C@H]3CN3CCOCC3)OCO4)n3c2CCCC3)c2ccc(O)cc2)c1 [Compound 45] ?
[reply] > 25 µM

[ask] Same read-out for O=C(c1cc(-c2cc3c(cc2C(=O)N2Cc4ccccc4C[C@H]2CN2CCOCC2)OCO3)n2c1CCCC2)N(Cc1c(Cl)ccc(F)c1F)c1ccc(O)cc1 [Compound 35] ?
[reply] > 25 µM

----------
IC50, BCL-2 (Homo sapiens (Human)): measured values

Some compounds with recorded IC50:
Cc1ccccc1CN(C(=O)c1cc(-c2cc3c(cc2C(=O)N2Cc4ccccc4C[C@H]2CN2CCOCC2)OCO3)n2c1CCCC2)c1ccc(O)cc1 = ≤ 0.005 µM
O=C(c1cc(-c2cc3c(cc2C(=O)N2Cc4ccccc4C[C@H]2CN2CCOCC2)OCO3)n2c1CCCC2)N(Cc1c(F)cccc1F)c1ccc(O)cc1 = 0.005 to 0.01 µM
COCCNC(=O)c1cccc(CN(C(=O)c2cc(-c3cc4c(cc3C(=O)N3Cc5ccccc5C[C@H]3CN3CCOCC3)OCO4)n3c2CCCC3)c2ccc(O)cc2)c1 = ≤ 0.005 µM
O=C(c1cc(-c2cc3c(cc2C(=O)N2Cc4ccccc4C[C@H]2CN2CCOCC2)OCO3)n2c1CCCC2)N(Cc1ccccc1Cl)c1ccc(O)cc1 = ≤ 0.005 µM
CN(C)CCNC(=O)c1ccc(CN(C(=O)c2cc(-c3cc4c(cc3C(=O)N3Cc5ccccc5C[C@H]3CN3CCOCC3)OCO4)n3c2CCCC3)c2ccc(O)cc2)cc1 = ≤ 0.005 µM

[ask] Could you share which IC50 value was measured for `COCCNC(=O)c1ccc(CN(C(=O)c2cc(-c3cc4c(cc3C(=O)N3Cc5ccccc5C[C@H]3CN3CCOCC3)OCO4)n3c2CCCC3)c2ccc(O)cc2)cc1` ?
[reply] ≤ 0.005 µM

[ask] Same read-out for `O=C(c1cc(-c2cc3c(cc2C(=O)N2Cc4ccccc4C[C@H]2CN2CCOCC2)OCO3)n2c1CCCC2)N(Cc1ccccc1-c1ccccc1)c1ccc(O)cc1` ?
[reply] 0.01 to 0.05 µM

----------
Assay: Cell viability assay (CellTiter-Glo), HEK293
Assay type: cell-based
Conditions: human, HEK293 cells, read-out: HEK293 (CC50 code)
resultType: CC50 at 3 days

[ask] Could you share which CC50 at 3 days value was measured for Cn1cnnc1CN(C(=O)c1cc(-c2cc3c(cc2C(=O)N2Cc4ccccc4C[C@H]2CN2CCOCC2)OCO3)n2c1CCCC2)c1ccc(O)cc1 [Compound 48] ?
[reply] 10 to 25 µM

[ask] Same read-out for CN(C)CCNC(=O)c1cccc(CN(C(=O)c2cc(-c3cc4c(cc3C(=O)N3Cc5ccccc5C[C@H]3CN3CCOCC3)OCO4)n3c2CCCC3)c2ccc(O)cc2)c1 [Compound 6] ?
[reply] 10 to 25 µM

[ask] Same read-out for CN1CCN(C(=O)c2ccc(CN(C(=O)c3cc(-c4cc5c(cc4C(=O)N4Cc6ccccc6C[C@H]4CN4CCOCC4)OCO5)n4c3CCCC4)c3ccc(O)cc3)cc2)CC1 [Compound 12] ?
[reply] 10 to 25 µM

[ask] Same read-out for Cc1c(CN(C(=O)c2cc(-c3cc4c(cc3C(=O)N3Cc5ccccc5C[C@H]3CN3CCOCC3)OCO4)n3c2CCCC3)c2ccc(O)cc2)cccc1[N+](=O)[O-] [Compound 50] ?
[reply] > 25 µM

[ask] Same read-out for COCCNC(=O)c1ccc(CN(C(=O)c2cc(-c3cc4c(cc3C(=O)N3Cc5ccccc5C[C@H]3CN3CCOCC3)OCO4)n3c2CCCC3)c2ccc(O)cc2)cc1 [Compound 1] ?
[reply] ≤ 10 µM
